The measured values listed here are drawn from PubChem BioAssay (NCI).

test: NCI Yeast Anticancer Drug Screen. Data for the rad50 strain (AID 155);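 note: 0% = growth of vehicle-only cultures of the same strain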; settings: S. cerevisiae rad50 strain growth inhibition; at 50.0 µM; stronger effect = higher value
Compounds without any hit were thinned out: in the full panel of roughly 79,000, 15% have a hit.
So I've got a bunch of molecules here, and I need their growth inhibition values.
One number for each entry, in %.

molecule: Cn1c(=O)c2nc(SC3CCCCC3)n(C)c2n(C)c1=O
unitDescriptor: %
recordedResult: -12.7
--
molecule: CSCCCCCSC
unitDescriptor: %
recordedResult: 0.6
--
molecule: CC(=O)N(C(C)=O)c1cc2c3c(c1)CCCN3CCC2
unitDescriptor: %
recordedResult: 2.2
--
molecule: CCCCCCCCCCCCCCCSc1ccc2ccccc2c1
unitDescriptor: %
recordedResult: -17
--
molecule: CCCCC(CC)OC(=O)Cc1ccccc1 (stereo unspecified)
unitDescriptor: %
recordedResult: 10.9

Quick batch: growth inhibition for everything below.
1. COC1OC(CBr)C(OC(=O)c2ccccc2)C(OC(C)=O)C1OC(C)=O (stereo unspecified)
2. CC(=O)C1COC(O)C1C (stereo unspecified)
3. CCN(CCC#N)c1cccc(C)c1
4. CNSC1CCC2(C)C(=CCC3C2CCC2(C)C(C(C)CCCC(C)C)CCC32)C1 (stereo unspecified)
5. CC1(C)[C@@H]2C[C@H]1C(Cc1cccc(C[C@H]3c4cc(-c5ccccn5)ncc4[C@H]4C[C@@H]3C4(C)C)c1)c1cc(-c3ccccn3)ncc12 (stereo partly specified)

Result:
-23.9
-5.45
-12.2
-1.3
-2.2

Quick batch: growth inhibition for everything below.
1. Cc1ccc(N=Nc2ccc(C)cc2NC(=S)Nc2ccccc2)cc1
2. O=S(=O)(O)c1ccccc1/C=N\N=C\c1ccccc1S(=O)(=O)O
3. NC(=O)CCCCCCCC(=O)O
4. CC1COCOC1c1ccc2c(c1)OCO2 (stereo unspecified)
5. CCOC(=O)C1=C(NC(C)=O)Sc2ccccc2C1

Result:
-11.2
10.8
-0.9
17.6
27.9

Quick batch: growth inhibition for everything below.
1. c1cc(CSSCc2ccncc2)ccn1
2. CCCCC1C(=O)N=C2C=CC=CN2C1=O (stereo unspecified)
3. O=C(NC(=O)c1cccc(Cl)c1)Nc1ccccc1
4. CC(C)C(N)=O

Result:
1. -15
2. -2.15
3. 3.1
4. 5.1

Quick batch: growth inhibition for everything below.
1. CCOC(=O)C1=NC(c2ccccc2)(c2ccccc2)OC1=C(Cl)Cl
2. CC1C(c2ccccc2)OC(c2ccccc2)N1C (stereo unspecified)
3. C(=N\N=C\c1ccccn1)/c1ccccn1

Result:
[0.8, 3.25, 9.65]

Quick batch: growth inhibition for everything below.
1. CC1=CC(=O)C(C(C)C)=CC1=O
2. C/C(Cc1cccc2ccccc12)=N/NC(N)=O
3. C=CCSc1nc2ccc(NCn3c(=S)sc4cc([N+](=O)[O-])ccc43)cc2s1
4. C[N+]1(C)C2Cc3ccccc3C1Cc1ccccc12

Result:
-9.55
2.35
12.6
-1.7
